Values compiled from PubChem BioAssay (NCI).

# Test system: CCRF-CEM leukemia
# method-notes: NCI-60 one-dose screen, 48 h (100 = growth as untreated, 0 = no growth, -100 = all killed)
# reported-conditions: 10 µM unless noted
Compounds without any hit were thinned out: in the full panel of roughly 83,000, 20% have a hit.
// class assignment uses growth with these ranges: low bin: < 20%; mid bin: ≥ 20% and < 70%; high bin: ≥ 70%

molecule | label-class
Cn1ncc2c(C(=O)c3ccc(F)cc3)nc(C(C)(C)C)nc21 | high bin
CC(=O)Nc1cc(N2CCOCC2)c2nc(NC(=O)c3[nH]c(C)c(Cl)c3Cl)sc2c1 | high bin
CS(=O)(=O)c1ccc(/C(=N/N=C(N)N)c2ccc(F)cc2)cc1 | high bin
CCOC(=O)c1c(N)c(C#N)cn1Cc1ccc(Cl)cc1Cl | high bin
CCCNNC(=O)c1ccc(-c2ccc(NC(=O)CCCCCCC(=O)N[C@H](C(=O)N3C[C@H](O)C[C@H]3C(=O)N[C@@H](C)c3ccc(-c4scnc4C)cc3)C(C)(C)C)cc2)cc1 | mid bin

Query: Assign a bin to C=C(C=O)[C@@H]1CC[C@]2(C(=O)O)CC[C@]3(C)C(CC[C@@H]4[C@@](C)(CCC#N)[C@H](C(=C)C=O)CC[C@]43C)[C@@H]12 (stereo partly drawn)
Result: low bin

Query: Now try C#CCN(C)CCCOc1ccc(NC(=O)CCCCCCC(=O)NO)cc1Cl .
Result: low bin

Query: Now try CCNC(=O)Oc1ccc(/C(=C(/C)c2ccc(OC)cc2)c2ccc(OCCN3CCCCCC3)cc2)cc1 .
Result: mid bin

Query: Now try CCCCCC[n+]1ccc(SCC(=O)n2ccc3ccccc32)c2ccccc21 .
Result: high bin

Query: Now try CC(=O)c1c([Si](C)(C)C)c2cc(C#N)ccn2c1C(=O)c1ccc(Br)cc1 .
Result: high bin

Query: Now try CC(=O)OC[C@@]12Oc3c(cccc3-c3ccc(O)c4c3O[C@]3(COC(C)=O)C(=C4O)C(=O)C[C@H](C)[C@@H]3OC(C)=O)C(O)=C1C(=O)C[C@H](C)[C@@H]2OC(C)=O .
Result: low bin

* * *

The following molecules are shown together with reported growth values.
# System: RXF 393 renal
# method-notes: NCI-60 one-dose screen, 48 h (100 = growth as untreated, 0 = no growth, -100 = all killed)
# reported-conditions: 10 µM unless noted
# Method: Cells are grown in 96 well plates and exposed to the test compound for 48 hours. Compounds are tested at a single concentration, which is 10^-5 M for most compounds. The reported endpoint is percent growth (GI% or GIPRCNT), where numbers from 0 - 100% represent growth inhibition, and numbers from -100% - 0 represent cell death. For example, a value of 40 represents 60% growth inhibition. A value of 0 means no net growth occurred over the course of the experiment. […]
The panel holds about 83,000 compounds, 20% with a hit somewhere; the sample as a whole holds those more often.
Your answer is read as %, so omit the unit and give the number.

molecule | value-unit | growth
Cn1cc(C2=C(c3coc4cc(Br)ccc34)C(=O)NC2=O)c2ccccc21 | % | 66.3
CS(=O)(=O)c1nccc(-c2c(-c3cccc(OCc4ccc(Cl)c(C(F)(F)F)c4)c3)nc3sccn23)n1 | % | 78

Please look at the following molecule next.
Query: Report growth for NC1[C@H]2CN(c3cnc(C(=O)Nc4cc(F)cc5cccnc45)cn3)C[C@@H]12 (stereo partly drawn) please.
Result: 70.6

* * *

# System: HS 578T breast
# method-notes: NCI-60 one-dose screen, 48 h (100 = growth as untreated, 0 = no growth, -100 = all killed)
# reported-conditions: 10 µM unless noted
This is part of a sample that, as a whole, favours compounds with a hit. Of some 83,000 tested, about 20% had one in any assay.
measure-name: growth (%)
Your answer is read as %, so omit the unit and give the number.

Below: 5 compounds and their reported growth.
entry-smiles | growth (%)
CS(=O)(=O)c1nccc(-c2c(-c3cccc(OCc4ccc(Cl)c(C(F)(F)F)c4)c3)nc3sccn23)n1 | 41.1
CC/C(=C(/c1ccc(Cl)cc1)c1ccc(OCCN)cc1)c1ccccc1 | 90.3
Cc1nc(N)sc1-c1csc(Nc2ccc(C(F)(F)F)cc2)n1 | 32.4
CSc1ccc(/C(=N/N=C(N)N)c2ccc(Cl)cc2)cc1 | 4
Cn1c(SCC(=O)c2ccc(F)cc2)nc2ccccc2c1=O | 101

Query: Report growth for CNC(=O)c1cc(-c2ccc(NC(=S)Nc3cccc(C(F)(F)F)c3)cc2)nc2cccnc12 please.
Result: 105

Query: Now try Cc1ccc(C(=O)Nc2ccc(CNCCN3CCOCC3)c(C(F)(F)F)c2)cc1C#Cc1cnc2cccnn12 .
Result: -13.3

Query: Now try Brc1ccc2[nH]cc(-c3nn4cc(-c5nccs5)nc4s3)c2c1 .
Result: -0.729

Query: Now try O=C1[C@@H]2Cc3c([nH]c4ccccc34)[C@H](c3ccc(Cl)cc3)N2C(=O)CN1C1CCN(Cc2ccccc2)CC1 .
Result: 65.5

* * *

# System: IGROV1 ovarian
# method-notes: NCI-60 one-dose screen, 48 h
# reported-conditions: 10 µM unless noted
About 83,000 compounds went through this panel and 20% of them were active in at least one assay; those are over-represented in the sample as a whole. The source made the active and inactive calls. Rule for the calls: active = growth percent below 10; inactive = the rest.
Permitted responses: T = active, F = inactive

The following compounds have reported results that may help.
compound | label-class
Clc1ccc2[nH]cc(-c3nn4cc(-c5ccncc5)nc4s3)c2c1 | F
CN1CC[C@@H]2[C@@]3(C)CC[C@H](O)C(C)(C)[C@@H]3CC[C@@]2(C)[C@]2(C)CC[C@@]3(CO)CCC(C)(C)C[C@@H]3C12 (stereo partly drawn) | F
CN(C)S(=O)(=O)c1ccc(-c2nc(C(Cl)Cl)nc3cc(-c4ccc(F)cc4)nn23)cc1 | T
CCc1cc(OC(=O)N2CCC(N3CCCCC3)CC2)ccc1Nc1cc(-c2ccc(-n3cccn3)cc2)[nH]n1 | F
C#Cc1nc(/C=C/CCCCCCC(=O)NO)cs1 | T
CC(Nc1c(C#N)cnc2ccc(-c3cncc(O)c3)cc12)c1ccccc1 (stereo not drawn) | T
O=C(CSc1nc2ccccc2c(=O)n1CCc1ccccc1)Nc1ccc(S(=O)(=O)Nc2ccc(Cl)nn2)cc1 | F

Here is the next item to consider.
Query: Recorded test call requested for CN(C)S(=O)(=O)c1ccc(-c2nc(C(Cl)Cl)nc3cc(-c4ccccc4)nn23)cc1
Result: F

* * *

# System: PC-3 prostate
# method-notes: NCI-60 one-dose screen, 48 h (100 = growth as untreated, 0 = no growth, -100 = all killed)
# reported-conditions: 10 µM unless noted
The panel holds about 83,000 compounds, 20% with a hit somewhere; the sample as a whole holds those more often.
Quick rule for you: growth under 70% gets criterion met, anything else gets criterion not met.

Query: Lab note: growth threshold 70%. Does this compound come in strictly under it? CC(=O)Nc1cc(N2CCOCC2)c2nc(NC(=O)c3[nH]c(C)c(Cl)c3Cl)sc2c1
Result: criterion met

Query: Now try CN1CCN(CCCCCC(=O)Nc2nc(-c3cccc(NS(=O)(=O)c4cccc5c(N(C)C)cccc45)c3)cs2)CC1 .
Result: criterion met

Query: Now try O=C1[C@H]2Cc3c([nH]c4ccccc34)[C@H](c3ccc(Cl)cc3)N2C(=O)CN1C1CCN(CC2CCCCC2)CC1 .
Result: criterion met

* * *

The following compounds are shown together with reported growth values.
# Test system: OVCAR-5 ovarian
# method-notes: NCI-60 one-dose screen, 48 h (100 = growth as untreated, 0 = no growth, -100 = all killed)
# reported-conditions: 10 µM unless noted
Compounds without any hit were thinned out: in the full panel of roughly 83,000, 20% have a hit. Calls of active or inactive are those of the source. The calls were made as follows: active = growth percent below 10; inactive = the rest.

Below: 3 compounds and their reported growth.
entry-smiles | target-entity | growth
COc1ccc(C(C)=C(c2ccc(OCCN3CCCCCC3)cc2)c2ccc(OCCN3CCCCCC3)cc2)cc1 | OVCAR-5 ovarian | 22.9% (inactive)
O=C(/C=C/c1cccc(F)c1)c1cccc(OCCCOc2cccc(C(=O)/C=C/c3cccc(F)c3)c2)c1 | OVCAR-5 ovarian | 77.8% (inactive)
C=C(C)[C@@H]1CC[C@]2(C(=O)O)CC[C@]3(C)[C@H](CC[C@@H]4[C@@]5(C)C/C(=C/c6ccccn6)C(=O)C(C)(C)[C@@H]5CC[C@]43C)[C@@H]12 | OVCAR-5 ovarian | 82.4% (inactive)

Query: Report growth for O=S(=O)(Oc1ccc(-c2cn3ccoc3n2)cc1)C1CCCCC1 please.
Result: 102% (inactive)

* * *

# Test system: OVCAR-4 ovarian
# method-notes: NCI-60 one-dose screen, 48 h (100 = growth as untreated, 0 = no growth, -100 = all killed)
# reported-conditions: 10 µM unless noted
Compounds without any hit were thinned out: in the full panel of roughly 83,000, 20% have a hit.
// class assignment uses growth with these ranges: lower band = under 50%, central band = from 50% up to 80%, upper band = 80% and over

molecule | label-class
CC1=C(C)C(=O)C(Nc2ccc(C)c(C)c2)=C(Br)C1=O | central band
O=C1/C(=C/c2cc(F)cc(F)c2)Cc2cc3c(cc21)OCO3 | central band
COc1ccc(-c2cc(-c3ccc(N(C)C)cc3)n3c(n2)nc2ccccc23)cc1 | central band
O=C(/C=C/Nc1ccc(S(=O)(=O)Nc2ncccn2)cc1)c1ccc(N=Cc2c(O)[nH]c3ccccc23)cc1 | upper band
C#CCN(C)CCCOc1ccc(NC(=O)CCCCCCC(=O)NO)cc1Cl | lower band
N#Cc1cnc2ccc(-c3cnc4n[nH]nc4c3)cc2c1N1CCc2cc(F)c(Cl)cc21 | lower band
COc1cc(OC)cc(-c2cc(-c3c[nH]c4ccccc34)nc(-c3c[nH]c4ccccc34)c2C#N)c1 | upper band
COc1ccc(C2CC(c3cccc(OCCCCOc4cccc(C5=NN(C(C)=O)C(c6ccc(OC)cc6)C5)c4)c3)=NN2C(C)=O)cc1 (stereo not drawn) | lower band

Here is the next item to consider.
Query: Assign a bin to NCCNC(=O)c1cccc(COc2ccccc2NC(=O)c2cc(Br)c(Br)[nH]2)c1
Result: upper band
